Taken from PubChem BioAssay AID1117319.

# Target Under Test: Virion infectivity factor (Human immunodeficiency virus type 1 group M subtype B (isolate BH10)) + Virion infectivity factor (Human immunodeficiency virus type 1 group M subtype B (isolate BRU/LAI)) + Virion infectivity factor (Human immunodeficiency virus type 1 group M subtype B (isolate PCV12)) + Virion infectivity factor (Human immunodeficiency virus type 1 group M subtype B (isolate HXB2)) + DNA dC->dU-editing enzyme APOBEC-3G (Homo sapiens) (UniProt P69720+P69721+P69722+P69723+Q9HC16)
# Protocol Summary: HIV-1 Vif–A3G interaction blockers – biochemical, TR-FRET, GST-Vif 1-94, biotin-A3G peptide, dose response retest, primary screen (AID 1117319);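 also: Vif residues 1-94 fused to GST binding biotinylated APOBEC3G peptide 110-148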
# Condition Notes: TR-FRET GST-Vif / biotin-A3G peptide binding
pIC50: −log10 of the molar value. Results filed as inconclusive are left out.
Measure Name: pIC50

- CCOC(=O)C(C(=O)OCC)c1cc(Br)c2noc3c2c1C(=O)c1ccccc1-3: 5.61
- CC(=O)Nc1ccc(S(=O)(=O)Nc2nc3ccccc3nc2Nc2ccc(N)cc2)cc1: 6.21
- CN(CC(=O)Nc1ccc(F)cc1)C(=O)c1cc(-c2ccco2)nc2ccccc12: 5.26
- CCOc1ccc(C(=O)NC(=S)Nc2ccc(N3CCC(C)CC3)cc2)cc1[N+](=O)[O-]: 4.26
- COc1cc2[nH]c(Cl)c([N+](=O)[O-])c2cc1OC: 5.42
- O=C(c1cc(-c2ccco2)on1)N1CCN(c2ccccc2)CC1: 4.51
- COC(=O)c1ccc(COc2ccc(/C=N/Nc3cccc(C(=O)O)c3)cc2)cc1: 4.20
- CC(C)c1ccc(N2C(=O)NC(=O)/C(=C\C=C\c3ccco3)C2=O)cc1: 5.03
- Cc1ccc(-c2c3c([nH]c(=S)c2C#N)CCCC3)o1: 4.86
- COC(Cc1nnc(SC)n1-c1ccc(Cl)cc1)OC: 4.37
- CC(C)C1Nc2ccc(C(=O)O)cc2C2C=CCC21 (configuration not stated): 5.09
- Cc1[nH]c2ccccc2c1Cc1nnc(SCc2ccccc2)o1: 4.15

====

# Target Under Test: Virion infectivity factor (Human immunodeficiency virus type 1 group M subtype B (isolate BH10)) + Virion infectivity factor (Human immunodeficiency virus type 1 group M subtype B (isolate BRU/LAI)) + Virion infectivity factor (Human immunodeficiency virus type 1 group M subtype B (isolate PCV12)) + Virion infectivity factor (Human immunodeficiency virus type 1 group M subtype B (isolate HXB2)) + DNA dC->dU-editing enzyme APOBEC-3G (Homo sapiens) (UniProt P69720+P69721+P69722+P69723+Q9HC16)
# Protocol Summary: HIV-1 Vif–A3G interaction blockers – biochemical, TR-FRET, GST-Vif 1-94, biotin-A3G peptide, dose response retest, primary screen (AID 1117319);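 also: Vif residues 1-94 fused to GST binding biotinylated APOBEC3G peptide 110-148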
# Condition Notes: TR-FRET GST-Vif / biotin-A3G peptide binding
Records with an inconclusive call do not appear.
Property: IC50; scope: individual molecules
Measure Name: IC50

• CCCC1=NN2C(=N)/C(=C\c3ccc(SCc4ccco4)o3)C(=O)N=C2S1 = 8.14 µM
• O=C(O)Cc1cccc(=O)c(O)c1C(=O)O = 8.19 µM
• CN1c2ccsc2C(O)=C(C(=S)Nc2ccc(F)c(Cl)c2)S1(=O)=O = 1.12 µM
• O=C(CCS(=O)(=O)c1ccc(Br)cc1)N1CCN(c2ccc(F)cc2)CC1 = 52.8 µM
• Cc1cccc(OCCn2cccc2/C=C2/C(=O)NC(=O)N(Cc3ccco3)C2=O)c1 = 4.18 µM
• O=C(Nc1nc(-c2ccco2)c(-c2ccco2)s1)c1ccco1 = 32.2 µM
• O=C1C=Cc2ccccc2C1=O = 10.6 µM
• CC(C)c1ccc(/C=C/C(=O)N2CCc3ccccc3C2)cc1 = 17.9 µM
• Cc1nc2c(=O)[nH]c(=S)[nH]c2[nH]c1=O = 50.7 µM
• CCOC(=O)c1cc2cc(F)ccc2nc1C = 1.65 µM
• Cc1nc(C)c(C(=O)Nc2nc3c(C)cccc3s2)o1 = 32 µM
• Cc1nccn1CC(=O)N/N=C/c1ccc(O)c(O)c1 = 23.2 µM
• Cc1ccc([C@@H]2C3COCC=C3C(C#N)=C(N)C2(C#N)C#N)o1 (stereo not given in full) = 10.3 µM
• CNc1c(C(=O)O)ccc2c1C(=O)c1ccccc1C2=O = 25 µM
• COC(=O)c1ccccc1NC(=O)c1noc2c1CCC2 = 26 µM
• O=C(NNC(=O)c1ccccc1O)c1cc2ccccc2o1 = 16.5 µM
• CC1=CN2C(=N)/C(=C/c3ccc([N+](=O)[O-])o3)C(=O)N=C2S1 = 2.91 µM
• CNc1ccc(Br)cc(C(=O)/C=C/c2ccc(OC)cc2)c1=O = 3.53 µM
• O=[N+]([O-])c1ccc(O)c2ncccc12 = 46.5 µM
• O=C(CN1CCN(c2ccccc2O)CC1)Nc1ccc2c(c1)CCC2 = 50.8 µM
• CN(CC(=O)Nc1cccc(F)c1)C(=O)c1cc(-c2ccco2)nc2ccccc12 = 4.8 µM
• CN(C(=O)COC(=O)c1cc(-c2ccco2)nc2ccccc12)C1CCS(=O)(=O)C1 (stereo not given) = 1.44 µM
• CCC(=O)OCCNc1cc(Sc2nc3ccccc3[nH]2)c2nonc2c1[N+](=O)[O-] = 9.48 µM
• O=C1C=CC(=O)c2c(O)c(CO)c(CO)c(O)c21 = 0.47 µM
• Nc1ccc(N2CCCCCC2)cc1 = 1.06 µM
• Cc1cccc(NC(=O)CSc2nnc(-c3ccco3)c(-c3ccco3)n2)c1C = 4.3 µM
• Cc1ccc(Cn2c(=S)[nH]c3ccc(N4CCOCC4)cc3c2=O)o1 = 0.61 µM
• CCCC(=O)N(CCc1ccc(OC)cc1)Cc1nc2ccccc2c(=O)[nH]1 = 14.4 µM
• CN1CCN(c2ccc(N)cc2)CC1 = 15.6 µM
• Oc1cccc(/C=N/NC(=S)NCCN2CCOCC2)c1O = 12.4 µM
• O=C(O)c1ccc(-n2nc(C(F)(F)F)c3c2-c2ccoc2CC3)cc1 = 58.6 µM
• CCN(CC)c1ccc(N=Cc2c(O)n(CCc3ccc(OC)c(OC)c3)c(=O)[nH]c2=O)cc1 = 44.1 µM
• O=C(O)CCC(=O)N(Cc1cccs1)Cc1cccs1 = 79.6 µM
• C=C(C)C(=O)Nc1cccc(C2=NOC3(C2)C[C@H](C(N)=O)N(C(=O)C(c2ccccc2)c2ccccc2)C3)c1 (stereo not given in full) = 2.41 µM
• Cc1ccc(-c2nnn(CC(=O)N(c3ccc(F)cc3)C(C(=O)NC3CCCC3)c3ccco3)n2)o1 (stereo not given) = 85.8 µM
• O=C1/C(=C\c2ccco2)SC(=S)N1c1ccccc1 = 2.58 µM
• O=C1CC(Nc2ccc(N3CCOCC3)cc2)C(=O)N1C1CCCCC1 (stereo not given) = 2.74 µM
• Cn1cccc1/C=C1/C(=O)NC(=O)N(Cc2ccccc2)C1=O = 3.33 µM
• O=C(N/N=C/C=C/c1ccco1)c1cccs1 = 7.15 µM
• O=C(Nc1ccccc1N1CCCC1)c1ccc(Br)o1 = 46.2 µM

====

# Target Under Test: Virion infectivity factor (Human immunodeficiency virus type 1 group M subtype B (isolate BH10)) + Virion infectivity factor (Human immunodeficiency virus type 1 group M subtype B (isolate BRU/LAI)) + Virion infectivity factor (Human immunodeficiency virus type 1 group M subtype B (isolate PCV12)) + Virion infectivity factor (Human immunodeficiency virus type 1 group M subtype B (isolate HXB2)) + DNA dC->dU-editing enzyme APOBEC-3G (Homo sapiens) (UniProt P69720+P69721+P69722+P69723+Q9HC16)
# Protocol Summary: HIV-1 Vif–A3G interaction blockers – biochemical, TR-FRET, GST-Vif 1-94, biotin-A3G peptide, dose response retest, primary screen (AID 1117319);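 also: Vif residues 1-94 fused to GST binding biotinylated APOBEC3G peptide 110-148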
# Condition Notes: TR-FRET GST-Vif / biotin-A3G peptide binding
pIC50: −log10 of the molar value. Inconclusive results are not listed.
Measure Name: pIC50

- Cc1oc(-c2ccc(Cl)cc2)cc1-c1nn2c(-c3ccoc3C)nnc2s1: 5.98
- COc1cc(NCCCNC(C)C)c2nccc(C)c2c1: 4.28
- COc1ccc(C(=O)n2nc(-c3ccc(Cl)cc3)nc2N)cc1OC: 4.15

====

# Target Under Test: Virion infectivity factor (Human immunodeficiency virus type 1 group M subtype B (isolate BH10)) + Virion infectivity factor (Human immunodeficiency virus type 1 group M subtype B (isolate BRU/LAI)) + Virion infectivity factor (Human immunodeficiency virus type 1 group M subtype B (isolate PCV12)) + Virion infectivity factor (Human immunodeficiency virus type 1 group M subtype B (isolate HXB2)) + DNA dC->dU-editing enzyme APOBEC-3G (Homo sapiens) (UniProt P69720+P69721+P69722+P69723+Q9HC16)
# Protocol Summary: HIV-1 Vif–A3G interaction blockers – biochemical, TR-FRET, GST-Vif 1-94, biotin-A3G peptide, dose response retest, primary screen (AID 1117319);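 also: Vif residues 1-94 fused to GST binding biotinylated APOBEC3G peptide 110-148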
# Condition Notes: TR-FRET GST-Vif / biotin-A3G peptide binding
Inconclusive results are not listed.
Entries and their measured IC50 follow.
Measure Name: IC50

- COc1ccc(NC(=O)CN(C)C(=O)c2cc(-c3ccco3)nc3ccccc23)cc1: 4.87 µM
- Cc1cc2ccccc2n1CCNC(=O)C1CCCCC1: 37.2 µM
- COc1ccc(NS(=O)(=O)c2cccc(C(=O)NNC(=O)c3cccn3C)c2)cc1: 12.7 µM
- C=CCn1c(C)cc(-c2csc(N)n2)c1C: 1.23 µM
- O=C(O)c1ccc(Cl)c2c1C1C=CCC1C(c1ccccn1)N2 (stereo not given): 0.82 µM
- Cc1cc(C(=O)COC(=O)c2cc(O)c3ccccc3c2O)c(C)n1CC1CCCO1 (stereo not given): 6.92 µM
- Cc1ccc(-c2ccc(CCC(=O)O)n2NC(N)=S)cc1: 11.5 µM
- Cc1cc(O)c(-c2cc(O)c(C)cc2O)cc1O: 8.44 µM
- Cc1cc(C)c([N+](=O)[O-])cc1-c1ccc(/C=N/c2c(-c3ccco3)nc3ccccn23)o1: 42.4 µM
- NC(=O)C1CCN(C2=C(Cl)C(=O)c3ccccc3C2=O)CC1: 2.5 µM
